Listed variants paired with reported protein stability index
B1: VPS39 (parent)
chain: LRLENNHCHIEESEHVLKKAHKYS

- Variants of: B1
- assay: protein stability index of a GFP-peptide fusion (GPS, HEK-293T) (PSI 1-6); higher = more stable;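 note: lentivirally expressed fusions sorted by FACS into six bins by GFP to DsRed ratio, PSI derived from sequencing read proportions per bin multiplied by bin number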
- settings: c terminus: a fixed tail appended
endpoint: protein stability index

INSERT INTO measurements (change, result) VALUES
  ('E4N', 3.92),
  ('E4P', 2.83),
  ('L3T', 3.06),
  ('Y23E', 3.12),
  ('H15T', 2.71),
  ('K19I', 2.01),
  ('E12G', 2.26),
  ('K18Y', 2.39),
  ('E4W', 2.44),
  ('E11N', 2.19),
  ('N6D', 2.54),
  ('H15K', 2.74),
  ('H21T', 2.27),
  ('E4A', 2.68),
  ('S13C', 2.06),
  ('E4Q', 2.92),
  ('K19M', 2.52),
  ('E12H', 2.75),
  ('H7I', 2.15),
  ('H7R', 2.9),
  ('E14D', 2.12),
  ('Y23S', 2.77),
  ('H9W', 2.18),
  ('V16T', 2.39),
  ('R2D', 4.26),
  ('E12T', 2.01),
  ('L3D', 3.12),
  ('L17S', 2.84),
  ('C8N', 2.38),
  ('Y23T', 2.4),
  ('E14Y', 1.88),
  ('L17F', 2.79),
  ('H7D', 2),
  ('R2L', 2.54),
  ('N5S', 1.98),
  ('L3N', 3.17),
  ('E14K', 2.29),
  ('A20Y', 1.92),
  ('C8P', 2.53),
  ('K22F', 1.84),
  ('S24K', 2.09),
  ('H15P', 2.34),
  ('K18V', 2.54),
  ('E14L', 2.16),
  ('H15F', 2.53),
  ('H21G', 2.5),
  ('S24A', 1.29),
  ('N6Y', 2.23),
  ('E4V', 2.71),
  ('C8V', 1.88),
  ('E12W', 1.78),
  ('H15D', 2.56),
  ('E11Y', 3.06),
  ('I10W', 2.43),
  ('N5M', 2.33),
  ('V16E', 2.83),
  ('K18F', 2.09),
  ('K19R', 2.37),
  ('R2C', 3.15),
  ('Y23D', 2.15),
  ('H9Q', 2.57),
  ('S24N', 2.3),
  ('L1I', 3.44),
  ('K18H', 2.17),
  ('H9N', 2.27),
  ('R2Q', 4.11),
  ('H9E', 1.59),
  ('N5V', 1.48),
  ('I10C', 3.18),
  ('V16N', 2.38),
  ('H7P', 3.01),
  ('E14F', 1.46),
  ('E12Y', 3.21),
  ('H9T', 3.29),
  ('N5W', 1.74),
  ('H21Q', 2.62),
  ('I10L', 1.9),
  ('Y23Q', 2.45),
  ('L1M', 2.99),
  ('H7W', 2.17),
  ('S13R', 2.15),
  ('N6M', 1.87),
  ('E14C', 1.37),
  ('K19G', 2.21),
  ('C8E', 2.35),
  ('H21D', 2.73),
  ('K22I', 1.65),
  ('E4F', 2.54),
  ('E11I', 2.12),
  ('L1R', 3.48),
  ('N5I', 2.22);
